test: solubility L in liquid crystal mixture; assay type: physicochemical; settings: 1 week stirring, liquid crystal mixture ZLI 1957/5
Listed here are molecules together with their documented Solubility L (at room temp.).
test.readout: Solubility L (at room temp.)

molecule="CCCCCCCCSc1nnc(-c2ccc(N=Nc3ccc(N=Nc4ccc(N(C)CCCC)cc4)c4ccccc34)cc2)s1 [Example 14]" observed_value=0.7%
molecule="CCCCc1nnc(-c2ccc(N=Nc3cc(C)c(N=Nc4ccc(OCc5ccc(C6CCC(CC)CC6)cc5)cc4C)cc3C)cc2)o1 (stereo not shown) [Example 1]" observed_value=1.3%
molecule="CCCCc1nnc(-c2ccc(N=Nc3ccc(N=Nc4ccc(N(C)CCCC)cc4)c4ccccc34)cc2)o1 [Example 10]" observed_value=1.2%
molecule="CCCCSc1nnc(-c2ccc(N=Nc3cc(C)c(N=Nc4ccc(N(C)CCCC)cc4)cc3C)cc2)s1 [Example 2]" observed_value=1.1%

meta.source: patent US4667020A
